The reported numbers originate from the supplement of paper PMC10567573.

B1: HESX1 (parent)
chain: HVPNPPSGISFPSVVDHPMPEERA

- Variants of: B1
- assay-procedure: protein stability index of a GFP-peptide fusion (GPS, HEK-293T) (PSI 1-6); higher = more stable;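 note: lentivirally expressed fusions sorted by FACS into six bins by GFP to DsRed ratio, PSI derived from sequencing read proportions per bin multiplied by bin number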
- test-settings: c terminus: a fixed tail appended
protein stability index values by entry

# item-sequence, protein stability index
data = [
    ("HVPNPPSNISFPSVVDHPMPEERA", 3.48),
    ("HVPNPPSYISFPSVVDHPMPEERA", 2.09),
    ("HVPNPPEGISFPSVVDHPMPEERA", 3.57),
    ("HVPNPPSGISFPSVVDHPMPEERF", 2.3),
    ("HVPNPPSGISFPSVVDHPMNEERA", 3.28),
    ("GVPNPPSGISFPSVVDHPMPEERA", 5.41),
    ("HVPNPPSGQSFPSVVDHPMPEERA", 3.62),
    ("HVPNPPSGISFPSVVDEPMPEERA", 3.29),
    ("IVPNPPSGISFPSVVDHPMPEERA", 4.77),
    ("HVPNPPSGISFPSVVDHPGPEERA", 2.44),
    ("HVPNPPSGIMFPSVVDHPMPEERA", 2.56),
    ("HVPNPPSGISFPSVVDHPMVEERA", 2.55),
    ("HVPNPPSGIYFPSVVDHPMPEERA", 2.18),
    ("HVPNPPSGISFPSVVDHQMPEERA", 2.61),
    ("HAPNPPSGISFPSVVDHPMPEERA", 4.97),
    ("HVYNPPSGISFPSVVDHPMPEERA", 3.54),
    ("HVPNPHSGISFPSVVDHPMPEERA", 1.83),
    ("HVPNPPSGISFPLVVDHPMPEERA", 2.09),
    ("HVPNPPSGISFPSVVDHPMPSERA", 2.56),
]
